Provide the reported EC50 of each item.
# assayed-system: T1, human GPC3 (Glypican-3) (human, UniProt P51654 25-580)
# T1 construct: whole, on cells; The cell line of each value is named under assay
# T1 sequence (P51654 25-580, form in doubt): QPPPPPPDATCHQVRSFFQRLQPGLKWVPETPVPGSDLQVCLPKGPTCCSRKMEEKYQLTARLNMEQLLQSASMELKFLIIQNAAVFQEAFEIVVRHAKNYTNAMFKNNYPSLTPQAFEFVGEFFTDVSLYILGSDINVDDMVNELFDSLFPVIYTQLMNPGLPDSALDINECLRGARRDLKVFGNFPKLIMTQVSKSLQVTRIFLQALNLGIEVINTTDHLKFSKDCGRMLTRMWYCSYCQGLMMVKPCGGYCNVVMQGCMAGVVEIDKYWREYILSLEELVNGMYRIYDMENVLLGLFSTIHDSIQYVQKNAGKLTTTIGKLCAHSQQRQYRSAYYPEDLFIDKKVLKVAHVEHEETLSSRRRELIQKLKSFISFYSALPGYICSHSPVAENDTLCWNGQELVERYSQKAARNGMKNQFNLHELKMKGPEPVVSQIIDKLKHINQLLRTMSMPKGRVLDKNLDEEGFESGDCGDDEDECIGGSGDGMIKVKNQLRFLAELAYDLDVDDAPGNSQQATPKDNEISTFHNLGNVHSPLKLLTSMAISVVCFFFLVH
# test-protocol: FACS on HepG2 cells
Your answer is read as pM, so omit the unit and give the number.

[Q] # lookup: EC50 of Hu 52H5D3B8-7 (antibody, human IgG1, kappa, V domains shown, also called humanized GPC3 antibody Hu 52H5D3B8-7) VH: EVQLVQSGAEVKKPGASVKVSCKASGYTFTDYEMHWVRQAPGQGLEWMGAIHPGSGGTAYNQKFKGRVTMTADKSISTAYMELSRLRSDDTAVYYCTRFYSYAYWGQGTLVTVSS VL: DVVMTQTPLSLSVTPGQPASISCRSSQSLVHSNGNTYLQWYLQKPGQSPQLLIYKVSNRFSGVPDRFSGSGSGTDFTLKISRVEAEDVGVYYCSQSIHVPYTFGGGTKVEIKR
[A] 405

[Q] Same read-out for Y035 CDRs with Hu 52H5D3B8-7 FRs (antibody, V domains shown, detected with anti-human IgG) VH: EVQLVQSGAEVKKPGASVKVSCKASGYTFTDYEMHWVRQAPGQGLEWMGAIHPGSGDTAYNQRFKGRVTMTADKSISTAYMELSRLRSDDTAVYYCTRFYSYAYWGQGTLVTVSS VL: DVVMTQTPLSLSVTPGQPASISCRSSQSLVHSNGNTYLQWYLQKPGQSPQLLIYKVSNRFSGVPDRFSGSGSGTDFTLKISRVEAEDVGVYYCSQSIYVPYTFGGGTKVEIK ?
[A] 611

[Q] Same read-out for GC33 antibody (Chugai Pharmaceutical) (antibody, V domains shown, Control antibody; preparation described in US 7919086 B2; detected with anti-human IgG) VH: QVQLVQSGAEVKKPGASVKVSCKASGYTFTDYEMHWVRQAPGQGLEWMGALDPKTGDTAYSQKFKGRVTLTADKSTSTAYMELSSLTSEDTAVYYCTRFYSYTYWGQGTLVTVSS VL: DVVMTQSPLSLPVTPGEPASISCRSSQSLVHSNGNTYLHWYLQKPGQSPQLLIYKVSNRFSGVPDRFSGSGSGTDFTLKISRVEAEDVGVYYCSQNTHVPPTFGQGTKLEIK ?
[A] 745

[Q] Same read-out for Hu 52H5D3B8-8 (antibody, human IgG1, kappa, V domains shown, also called humanized GPC3 antibody Hu 52H5D3B8-8; GPC3 antibody) VH: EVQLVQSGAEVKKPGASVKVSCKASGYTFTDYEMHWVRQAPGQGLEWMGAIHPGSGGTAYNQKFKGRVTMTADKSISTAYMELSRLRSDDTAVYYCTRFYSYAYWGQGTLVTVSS VL: DVVMTQTPLSLSVTPGQPASISCRSSQSLVHSNGNTYLQWYLQKPGQSPQLLIYKVSNRFSGVPDRFSGSGSGTDFTLKISRVEAEDVGVYFCSQSIHVPYTFGGGTKVEIKR ?
[A] 351
